The values you see were collected from patent US10822348B2.

Measured On: unphosphorylated-BTK kinase domain (UP-BTK), GST-tagged human BTK (389-659aa) (Homo sapiens (Human), UniProt Q06187)
Sequence (Q06187 389-659): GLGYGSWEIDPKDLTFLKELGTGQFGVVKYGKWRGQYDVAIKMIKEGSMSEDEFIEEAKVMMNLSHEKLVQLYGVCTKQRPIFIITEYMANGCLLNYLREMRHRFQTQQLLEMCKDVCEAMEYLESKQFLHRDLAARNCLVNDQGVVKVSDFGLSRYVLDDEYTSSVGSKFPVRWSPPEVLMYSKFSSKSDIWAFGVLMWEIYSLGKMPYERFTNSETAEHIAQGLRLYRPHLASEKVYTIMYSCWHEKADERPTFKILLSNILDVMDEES
Assay Protocol: BTK kinase Lanthascreen binding assay
Applied Conditions: unphosphorylated-BTK kinase domain; 60 minutes incubation; pIC50 = negative log of the IC50 in molar
Measured Parameter: BTK_I_binding pIC50

Consider the worked cases shown below.
Cc1cc(Oc2ccccc2)ccc1N1C(=O)Nc2c(C(=O)N[C@@H]3CCCN(C(=O)/C=C/CNS(C)(=O)=O)C3)sc3nccc1c23 (single isomer, unassigned) [Example 532]
7.4
Cc1cc(Oc2ccccc2)ccc1N1C(=O)Nc2c(C(=O)N[C@@H]3CCCOC3)sc3nccc1c23 (single isomer, unassigned) [Example 307]
6.0
Cc1cc(Oc2ccccc2)ccc1N1C(=O)Nc2c(C(=O)N[C@@H]3CCCN(C#N)C3)sc3nccc1c23 (single isomer, unassigned) [Example 329]
5.7
Cc1cc(Oc2ccccc2)ccc1N1C(=O)Nc2c(C(=O)N[C@@H]3CCCN(C(=O)/C=C/CN)C3)sc3nccc1c23 (single isomer, unassigned) [Example 511]
7.8

a. C=CC(=O)N1CCC[C@@H](NC(=O)c2sc3nccc4c3c2NC(=O)N4c2ccc(OC(C)C)cc2C)C1 (single isomer, unassigned) [Example 418]
b. Cc1cc(OC2CCOCC2)ccc1N1C(=O)Nc2c(C(=O)N[C@@H]3CCCN(C)C3)sc3nccc1c23 (single isomer, unassigned) [Example 343]
Asked: // pick min by BTK_I_binding pIC50: a , b Please indicate the selected item by its label.
Given back: b
(b: 5.3, a: 7.8)

====

Measured On: unphosphorylated-BTK kinase domain (UP-BTK), GST-tagged human BTK (389-659aa) (Homo sapiens (Human))
Assay Protocol: BTK kinase Lanthascreen binding assay
Applied Conditions: negative log of the IC50 in molar; 60 minutes incubation with 50 nM Tracer 236
Measured Parameter: BTK_I_binding pIC50

C=CC(=O)N1CCC[C@@H](NC(=O)c2sc3nccc4c3c2NC(=O)N4c2cnc(CC(C)C)cc2C)C1 (single isomer, unassigned) [Example 722]
6.4
C=CC(=O)N[C@H]1COC[C@H]1NC(=O)c1sc2nccc3c2c1NC(=O)N3c1cnc(Oc2ccccc2)cc1C (stereo in doubt) [Example 745]
8.1
C=CC(=O)N1CC[C@@H](NC(=O)c2sc3nccc4c3c2NC(=O)N4c2ccc(Oc3ccccc3)nc2C)C1 (single isomer, unassigned) [Example 716]
8.0
C=CC(=O)N1CCC[C@@H](NC(=O)c2sc3nccc4c3c2NC(=O)N4c2ccc(Oc3ccccc3)nc2C)C1 (single isomer, unassigned) [Example 661]
8.3

====

Measured On: unphosphorylated-BTK kinase domain (UP-BTK), GST-tagged human BTK (389-659aa) (Homo sapiens (Human), UniProt Q06187)
Assay Protocol: BTK kinase Lanthascreen binding assay
Applied Conditions: negative log of the IC50 in molar; 60 minutes incubation, 50 nM Tracer 236
Measured Parameter: BTK_I_binding pIC50

C=CC(=O)N1CCC[C@H](NC(=O)c2sc3nccc4c3c2NC(=O)N4c2ccc(Oc3ccccc3)cc2C)C1 (single isomer, unassigned) [Example 82]
7.2
Cc1cc(Oc2ccccc2)ccc1N1C(=O)Nc2c(C(=O)N[C@@H]3CCCOC3)sc3nccc1c23 (single isomer, unassigned)
7.8
Cc1cc(Oc2ccccc2)ccc1N1C(=O)Nc2c(C(=O)N[C@@H]3CCN(C)C3)sc3nccc1c23 (single isomer, unassigned)
7.4
Cc1cc(Oc2ccccc2)ccc1N1C(=O)Nc2c(C(=O)N[C@@H]3CCCN(C)C3)sc3nccc1c23 (single isomer, unassigned) [Example 180]
6.0
Cc1cc(Oc2ccccc2)ccc1N1C(=O)Nc2c(C(=O)N[C@H]3CCCOC3)sc3nccc1c23 (single isomer, unassigned) [Example 88]
7.6
Cc1cc(Oc2ccccc2)ccc1N1C(=O)Nc2c(C(=O)N[C@H]3CCCN(C)C3)sc3nccc1c23 (single isomer, unassigned)
6.6
CNC/C=C/C(=O)N1CCC[C@@H](NC(=O)c2sc3nccc4c3c2NC(=O)N4c2ccc(Oc3ccccc3)cc2C)C1 (single isomer, unassigned) [Example 38]
7.3
C=CC(=O)N1CC[C@@H](NC(=O)c2sc3nccc4c3c2NC(=O)N4c2ccc(Oc3ccccc3)cc2C)C1 (single isomer, unassigned)
6.4
Cc1cc(Oc2ccccc2)ccc1N1C(=O)Nc2c(C(=O)N[C@@H]3CCCN(C(=O)/C(C#N)=C/C(C)(C)N4CCOCC4)C3)sc3nccc1c23 (single isomer, unassigned)
6.9
Cc1cc(Oc2ccccc2)ccc1N1C(=O)Nc2c(C(=O)N[C@@H]3CCCN(C(=O)CN(C)C)C3)sc3nccc1c23 (single isomer, unassigned)
7.4
N#C/C(=C\C1CC1)C(=O)N1CCC[C@@H](NC(=O)c2sc3nccc4c3c2NC(=O)N4c2c(Cl)ccc3c2OCO3)C1 (single isomer, unassigned)
7.4
